Property: Kd; scope: individual molecules
Biological target: p97-C10 peptide
Test: Fluorescence anisotropy, UBXD1-PUB constructs titrated to 5,6-FAM labeled p97-C10 peptide
Type: binding
Conditions: UBXD1-PUB (150–264) mutants titrated to 5,6-FAM labeled p97-C10 peptide (100 nM); 50 mM NaKPi, pH 6.5, 25 °C; fluorescence anisotropy ex 495/em 518 nm; fit of averaged triplicates ± standard deviation of the fit
Description: N-terminal hexahistidine-tagged UBXD1-PUB (150–264) was cloned into a pET28a expression vector using the NdeI and HindIII restriction sites. UBXD1 point mutants were produced by site-directed mutagenesis following the Quikchange protocol (Agilent Technologies). Unlabeled p97-C10 ([…]), p97-C13 ([…]), and phosphorylated p97-C13 ([…]pYG) peptides for NMR and ITC as well as 5,6-FAM-labeled peptides for fluorescence studies were purchased from Caslo ApS (Denmark). […]
Write the value in µM as a bare number.

Here's what some known entries look like.
# molecule, unit_of_measurement, measured_value
data = [
    ("Y181F: UBXD1-PUB point mutant (protein, left off: His6, N-terminal, cleaved, UBXD1-PUB point mutant) STDPVAASIMKIYTFNKDQDRVKLGVDTIAKFLDNIHLHPEEEKYRKIKLQNKVFQERINCLEGTHEFFEAIGFQKVLLPAQDQEDPEEFYVLSETTLAQPQSLERHKEQLLAAE", "µM", 28.4),
    ("R207E: UBXD1-PUB point mutant (protein, left off: His6, N-terminal, cleaved, UBXD1-PUB point mutant) STDPVAASIMKIYTFNKDQDRVKLGVDTIAKYLDNIHLHPEEEKYRKIKLQNKVFQEEINCLEGTHEFFEAIGFQKVLLPAQDQEDPEEFYVLSETTLAQPQSLERHKEQLLAAE", "µM", 88),
]

# evaluate next
response.value for N201D: UBXD1-PUB point mutant (protein, left off: His6, N-terminal, cleaved, UBXD1-PUB point mutant) STDPVAASIMKIYTFNKDQDRVKLGVDTIAKYLDNIHLHPEEEKYRKIKLQDKVFQERINCLEGTHEFFEAIGFQKVLLPAQDQEDPEEFYVLSETTLAQPQSLERHKEQLLAAE (field: Kd) = 280
